These entries and their values trace back to ChEMBL document CHEMBL1138467.

# tested system: Prostaglandin G/H synthase 2 (Mus musculus) (UniProt Q05769)
# measurement description: Inhibitory potency at mouse COX2 assessed as molar ratio of drug to enzyme required to slow down the reaction twofold at 0.1 uM enzyme concentration
Kindly state Ratio for each of the entries shown.
API doc: respond with a numeric literal and nothing else, no unit.

Input: Please report the measured Ratio for `COc1ccc2c(c1)c(CC(=O)Nc1cccnc1)c(C)n2C(=O)c1ccc(Cl)cc1`
Output: 2.1

Input: Please report the measured Ratio for COc1ccc2c(c1)c(CC(=O)NC(C)c1ccncc1)c(C)n2C(=O)c1ccc(Cl)cc1 (stereo not given)
Output: 1.7

Input: Please report the measured Ratio for `COc1ccc2c(c1)c(CC(=O)NCc1ccncc1)c(C)n2C(=O)c1ccc(Cl)cc1`
Output: 10

Input: Please report the measured Ratio for `COc1ccc2c(c1)c(CC(=O)Nc1ncccn1)c(C)n2C(=O)c1ccc(Cl)cc1`
Output: 3.6

Input: Please report the measured Ratio for `COc1ccc2c(c1)c(CC(=O)Nc1ccccn1)c(C)n2C(=O)c1ccc(Cl)cc1`
Output: 2.1

* * *

# tested system: Prostaglandin G/H synthase 2 (Mus musculus)
# Sequence (whole entry): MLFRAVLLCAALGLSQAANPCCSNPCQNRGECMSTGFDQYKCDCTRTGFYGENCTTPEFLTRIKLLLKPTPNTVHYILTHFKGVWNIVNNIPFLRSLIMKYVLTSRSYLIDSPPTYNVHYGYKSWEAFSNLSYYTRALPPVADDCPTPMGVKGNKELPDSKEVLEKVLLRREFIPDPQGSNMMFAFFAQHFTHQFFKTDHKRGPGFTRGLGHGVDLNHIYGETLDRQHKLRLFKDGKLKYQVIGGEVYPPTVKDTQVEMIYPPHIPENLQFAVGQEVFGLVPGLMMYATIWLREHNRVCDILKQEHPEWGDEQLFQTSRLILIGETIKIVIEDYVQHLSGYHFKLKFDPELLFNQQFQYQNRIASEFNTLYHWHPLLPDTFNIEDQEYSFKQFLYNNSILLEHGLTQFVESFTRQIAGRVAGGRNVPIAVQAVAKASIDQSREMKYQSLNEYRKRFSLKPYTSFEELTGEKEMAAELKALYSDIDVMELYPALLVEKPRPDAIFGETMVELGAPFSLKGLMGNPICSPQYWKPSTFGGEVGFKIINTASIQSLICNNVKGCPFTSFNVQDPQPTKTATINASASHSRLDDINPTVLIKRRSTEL
# measurement description: Inhibitory potency at mouse COX2 assessed as molar ratio of drug to enzyme required to slow down the reaction twofold at 0.1 uM enzyme concentration
reported property: Ratio

Input: Please report the measured Ratio for COc1ccc2c(c1)c(CC(=O)NCC(C)c1ccccc1)c(C)n2C(=O)c1ccc(Cl)cc1 (stereo not given)
Output: > 40

Input: Please report the measured Ratio for `COc1ccc2c(c1)c(CC(=O)NCc1ccccn1)c(C)n2C(=O)c1ccc(Cl)cc1`
Output: > 10

Input: Please report the measured Ratio for `COc1ccc2c(c1)c(CC(=O)NCc1ccc(C(F)(F)F)nc1)c(C)n2C(=O)c1ccc(Cl)cc1`
Output: < 1

Input: Please report the measured Ratio for `COc1ccc2c(c1)c(CC(=O)NCCc1cccc(Cl)c1)c(C)n2C(=O)c1ccc(Cl)cc1`
Output: < 1

Input: Please report the measured Ratio for `COc1ccc2c(c1)c(CC(=O)NCc1ccc(Cl)nc1)c(C)n2C(=O)c1ccc(Cl)cc1`
Output: < 1
